B1: LINE1-full (parent)
chain: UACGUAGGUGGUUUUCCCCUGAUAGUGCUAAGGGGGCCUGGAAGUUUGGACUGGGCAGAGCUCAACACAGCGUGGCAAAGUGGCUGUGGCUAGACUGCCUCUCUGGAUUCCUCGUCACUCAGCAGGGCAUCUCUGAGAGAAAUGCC

# Variants of: B1
# Assay Name: self-cleavage, relative activity (ratio to wild type); higher = more cleavage; in vitro, sequencing; the parent is a self-cleaving ribozyme
Output fulfilled for self-cleavage not less than 0.2; output not fulfilled otherwise.

# example entries with known answers
UACGUAGGUGGUUUUCCCCUGAUAGUGCUAAGGGGGCCAGGAAGUUUGGACUGGGCAGAACUCAACACAGCGUGGCAAAGUGGCUGUGGCUAGACUGCCUCUCUGGAUUCCUCGUCACUCAGCAGGGCAUCUCUGAGAGAAAUGCC :: not fulfilled
UACGUAGGUGGUUUUCCCCUGAUAGUGCUAAGGGGGCCUGGAAGUUUGGACUGGGCAGGGCUCAACACAGCGUGGCGAAGUGGCUGUGGCUAGACUGCCUCUCUGGAUUCCUCGUCACUCAGCAGGGCAUCUCUGAGAGAAAUGCC :: not fulfilled
UACGUAGGUGGUUUUCCCCUGAUAGUGCUAAGUGGGCCUGGAAGUUUGGACUGGGCAGAGCUCAACUCAGCGUGGCAAAGUGGCUGUGGCUAGACUGCCUCUCUGGAUUCCUCGUCACUCAGCAGGGCAUCUCUGAGAGAAAUGCC :: not fulfilled

Reported self-cleavage reaches at least 0.2 for UACGUAGGUGGUUUUCCCCUGAUAGUGCUAAGGGGGCCUGGAAGUUCGGACUGGGCAGAGCUCAACACAGCGUGGCAAAGUGGCUGUGGGUAGACUGCCUCUCUGGAUUCCUCGUCACUCAGCAGGGCAUCUCUGAGAGAAAUGCC ?
not fulfilled

Reported self-cleavage reaches at least 0.2 for UACGUAGGUGGUUUUCCCCUGAUAGUGCUAAGGGGGCCUGGAAGUUUGGACUGGGCAGAGCUCAACUCAGCGUGGCAAAGUGGCUGUGGCUAGACUGCCUCUCUGGUUUCCUCGUCACUCAGCAGGGCAUCUCUGAGAGAAAUGCC ?
not fulfilled

Reported self-cleavage reaches at least 0.2 for UACGUAGGUGGUUUUCCCCUGAUAGUGCUAAGGGGGCCUGGAAGUCUGGACUGGGCAGAGCUCAACACAGCGUGGCAAAGUGGCUGUGGCUAGACUGCCUCUCUGGAUUCCUCGUCACUCAGCAGGGCAUCUCUGAGAGUAAUGCC ?
fulfilled
